- subject of test: T1, monkey Trop2 protein (Sino Biological, #90893-C08H) (monkey, UniProt A0A2K5UE71 27-274)
- T1 construct: bought protein; also called monkey Trop2 protein antigen (His tag)
- T1 sequence: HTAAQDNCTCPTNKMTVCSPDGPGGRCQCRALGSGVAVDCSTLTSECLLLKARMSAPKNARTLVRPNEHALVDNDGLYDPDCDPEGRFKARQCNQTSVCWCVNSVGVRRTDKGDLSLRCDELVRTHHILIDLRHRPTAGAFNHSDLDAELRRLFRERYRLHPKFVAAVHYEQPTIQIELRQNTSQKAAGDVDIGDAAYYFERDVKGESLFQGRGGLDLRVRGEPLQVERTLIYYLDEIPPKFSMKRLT
- assay notes: SPR, Biacore T200, antigen immobilised on CM5 chip
measured quantity: pKd
// scale note: pKd = -log10(conc_M); give the bare number

| binder | pKd |
| --- | --- |
| comparative example 2 antibody Tab (hRS7) (antibody, human IgG1, kappa, V domains shown, prepared on the basis of sacituzumab govitecan (ChemPartner, #T07-001); naked antibody) VH: QVQLQQSGSELKKPGASVKVSCKASGYTFTNYGMNWVKQAPGQGLKWMGWINTYTGEPTYTDDFKGRFAFSLDTSVSTAYLQISSLKADDTAVYFCARGGFGSSYWYFDVWGQGSLVTVSS VL: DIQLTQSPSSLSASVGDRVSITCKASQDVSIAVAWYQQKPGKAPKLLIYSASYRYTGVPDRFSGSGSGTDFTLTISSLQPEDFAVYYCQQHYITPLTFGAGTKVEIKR | 9.21 |

[Q] What does the record list as pKd for PR001142 (antibody, human IgG1, kappa, V domains shown, fully human IgG1/kappa; also called antibody No. (9)) VH: QVQLQESGPGLVKPSGTLSLTCAVSGDSISSNNWWSWVRQPPGKGLEWIGEIYPGGNPNYNPSLKSRVTISVDKSKNQFSLKLNSVTAADTAVYYCARGSGVISYFDYWGQGTLVTVSS VL: DIQMTQSPSTLSASVGDRVTITCRASQSIGHWLAWYQQKPGKAPKLLIYKASSLESGVPSRFRGSGSGTEFTLTISSLQPDDFATYYCQQYSSYSPITFGQGSRLEIKR ?
[A] 9.43

[Q] What does the record list as pKd for PR001166 (antibody, human IgG1, kappa, V domains shown, fully human IgG1/kappa; also called antibody No. (27)) VH: QVQLQESGPGLVKPSETLSLTCAVSGYSISSGYFWAWIRQPPGKGLEWIGSIYHSGRTHYNPSLKSRVIISLDTSKNQFSLKLRSVTAADSAVYYCAREGYASGSYYWGQGTLVTVSS VL: EIVMTQSPATLSVSPGERATLSCRSSQSVNNYLAWFQQKPGQAPRLLIYDSSTRATGIPARFSGSGSGTEFTLTISSLQSEDFAFYFCQQYENWPLTFGGGTKVEIKR ?
[A] 10.07

[Q] What does the record list as pKd for PR001165 (antibody, human IgG1, kappa, V domains shown, fully human IgG1/kappa; also called antibody No. (26)) VH: QVQLVESGGGVVQPGRSLRLSCEASGFTFSHYGMHWVRQAPGKGLEWVAVIWYDGIKTYYVESVKGRFTISRDNSKNTLNLQMNRLRAEDTAVYYCARDGGFGESNYYGLDVWGQGTTVTVSS VL: DIQLTQSPSFLSASVGDRVTITCRASQGISSYLGWYQQKPGKAPKLLIYIASTLQSGVPSRFSGSGSGTEFTLTISSLQPEDFATYYCQQLNSYPYTFGQGTKLEIKR ?
[A] 9.31
